Hello, the source for this data is patent US10450368, in case you need it.

Some binders, each annotated with its measured LogAUC.
biological target: T1, CH505.w30.12D8gp120; assay: ELISA
T1 construct: also called CH505w30.12 gp120
quantityKind: LogAUC

CH493 (antibody, V domains shown, also called CH235.9; DH493) VH: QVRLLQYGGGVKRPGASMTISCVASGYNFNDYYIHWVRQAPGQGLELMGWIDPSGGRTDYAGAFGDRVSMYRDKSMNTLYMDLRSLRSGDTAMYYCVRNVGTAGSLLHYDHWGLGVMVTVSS VL: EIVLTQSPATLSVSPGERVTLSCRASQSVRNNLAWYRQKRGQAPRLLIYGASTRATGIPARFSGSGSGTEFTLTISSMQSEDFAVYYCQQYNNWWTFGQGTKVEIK :: 3.17
CH236 (antibody, V domains shown, also called CH236_4A/293i) VH: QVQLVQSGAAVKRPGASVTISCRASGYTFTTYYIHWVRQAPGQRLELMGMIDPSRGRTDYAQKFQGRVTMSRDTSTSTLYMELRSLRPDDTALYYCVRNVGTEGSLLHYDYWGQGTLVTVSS VL: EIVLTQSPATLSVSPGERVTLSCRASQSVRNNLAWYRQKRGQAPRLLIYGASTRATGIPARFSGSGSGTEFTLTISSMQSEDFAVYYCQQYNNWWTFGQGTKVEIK :: 0.95
CH235.13 (antibody, V domains shown) VH: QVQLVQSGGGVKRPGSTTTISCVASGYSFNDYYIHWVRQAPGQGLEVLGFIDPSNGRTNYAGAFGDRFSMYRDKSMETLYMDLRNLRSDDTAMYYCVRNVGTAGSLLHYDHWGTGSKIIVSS VL: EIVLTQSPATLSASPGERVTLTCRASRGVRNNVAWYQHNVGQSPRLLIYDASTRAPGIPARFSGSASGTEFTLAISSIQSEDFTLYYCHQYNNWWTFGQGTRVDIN :: 1.05
CH241 (antibody, V domains shown) VH: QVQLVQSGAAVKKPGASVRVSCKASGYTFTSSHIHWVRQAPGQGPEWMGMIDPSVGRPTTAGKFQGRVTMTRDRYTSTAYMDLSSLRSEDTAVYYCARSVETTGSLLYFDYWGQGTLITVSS VL: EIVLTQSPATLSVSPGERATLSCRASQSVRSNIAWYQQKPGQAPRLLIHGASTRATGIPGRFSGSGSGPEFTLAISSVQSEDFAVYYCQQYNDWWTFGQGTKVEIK :: 9.6
CH556 (antibody, V domains shown, also called CH235.11) VH: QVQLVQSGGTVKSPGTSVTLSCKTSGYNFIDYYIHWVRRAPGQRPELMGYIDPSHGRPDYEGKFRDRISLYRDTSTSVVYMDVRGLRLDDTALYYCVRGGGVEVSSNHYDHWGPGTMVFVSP VL: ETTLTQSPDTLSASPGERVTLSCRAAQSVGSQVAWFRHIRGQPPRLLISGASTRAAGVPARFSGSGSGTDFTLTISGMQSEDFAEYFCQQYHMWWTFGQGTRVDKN :: 0
CH555 (antibody, V domains shown, also called CH235.10) VH: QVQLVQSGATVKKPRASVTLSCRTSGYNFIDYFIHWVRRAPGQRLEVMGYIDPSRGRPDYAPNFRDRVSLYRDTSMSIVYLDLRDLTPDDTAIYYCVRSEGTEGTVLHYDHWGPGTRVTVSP VL: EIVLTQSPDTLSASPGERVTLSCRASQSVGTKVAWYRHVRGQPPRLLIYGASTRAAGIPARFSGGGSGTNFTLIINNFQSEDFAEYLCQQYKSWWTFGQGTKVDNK :: 0
